Provenance of the data: ChEMBL document CHEMBL1145305

system.name: Beta-secretase 1 (Homo sapiens)
Sequence (P56817 whole entry): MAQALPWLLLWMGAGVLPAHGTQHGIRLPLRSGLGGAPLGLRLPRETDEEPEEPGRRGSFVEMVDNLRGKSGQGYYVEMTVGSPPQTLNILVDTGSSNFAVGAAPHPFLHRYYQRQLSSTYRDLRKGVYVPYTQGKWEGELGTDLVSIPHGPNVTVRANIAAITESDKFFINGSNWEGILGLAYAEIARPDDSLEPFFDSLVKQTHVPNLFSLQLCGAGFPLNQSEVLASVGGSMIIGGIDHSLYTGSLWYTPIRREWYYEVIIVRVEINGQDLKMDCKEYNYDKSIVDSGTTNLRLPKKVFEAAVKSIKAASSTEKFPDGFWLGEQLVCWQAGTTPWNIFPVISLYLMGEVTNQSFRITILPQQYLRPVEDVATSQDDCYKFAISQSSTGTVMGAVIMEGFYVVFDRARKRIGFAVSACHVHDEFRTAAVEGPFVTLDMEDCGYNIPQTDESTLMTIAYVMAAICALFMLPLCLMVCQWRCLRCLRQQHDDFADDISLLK
experiment: Inhibition of human recombinant BACE1 at 2 uM
Give measured inhibition for each item. Keep answers brief.
Answer with the figure and its unit, nothing else.

Lab request: please report inhibition under test system Beta-secretase 1 (Homo sapiens) for CC(C)[C@H](NC(=O)[C@@H](N)CNC(=O)c1[nH]c(=O)[nH]c(=O)c1F)C(=O)N[C@@H](CC1CCCCC1)C(=O)N[C@@H](Cc1ccccc1)[C@@H](O)C(=O)Nc1cccc(-c2nn[nH]n2)c1 100%

Also CC(C)C[C@H](NC(=O)[C@@H](NC(=O)[C@@H](N)CNC(=O)[C@H]1CC(=O)NC(=O)N1)C(C)C)C(=O)N[C@@H](Cc1ccccc1)[C@@H](O)C(=O)Nc1cccc(C(=O)O)c1 , if possible. 13%

Request: CC(C)C[C@H](NC(=O)[C@@H](NC(=O)[C@@H](N)CNC(=O)c1[nH]c(=O)[nH]c(=O)c1F)C(C)C)C(=O)N[C@@H](Cc1ccccc1)[C@@H](O)C(=O)Nc1cccc(-c2nn[nH]n2)c1 100%
